Below: a set of entries, each annotated with reported pIC50.
- Target Of Assay: protein-protein interaction between Kras and SOS1 (biotin-tagged human Kras loaded with GDP, His-tagged human SOS1) (Homo sapiens (Human), UniProt P01116, G12D)
- Assay Notes: Protein-protein interaction inhibition between Kras and SOS1 (KrasG12D-SOS PPI) using AlphaScreen;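 also: kras produced in E. coli, Ni-coupled donor beads and streptavidin acceptor beads, excitation 680 nm with emission detected at 520–620 nm via singlet oxygen transfer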
- Type: biochemical
- Measurement Context: AlphaScreen; biotin-tagged human Kras loaded with GDP, His-tagged human SOS1; read-out: KRAS G12D-SOS PPI IC50
pIC50: −log10 of the molar value. Numbered stars: 1 amine (or outer) side, 2 acyl side, 3 side chain; on linkers, the order of the positions; unused ones are H or OH. Bridge positions count the residues as written; N and C are the ends. Square brackets hold non-standard residues; d marks the D form. Peptide text beside a SMILES is read from it. hPhe(3-Cl-4-CF3) = N[C@@H](CCc1ccc(C(F)(F)F)c(Cl)c1)C(=O)O; hPhe(3-F,4-CF3) = N[C@@H](CCc1ccc(C(F)(F)F)c(F)c1)C(=O)O; NMePhe(4-Cl) = CN[C@@H](Cc1ccc(Cl)cc1)C(=O)O; NMePhe(2-Cl) = CN[C@@H](Cc1ccccc1Cl)C(=O)O; NMedβ3hAla = C[C@H](CC(=O)[*:2])N(C)[*:1]; NMeCha = CN[C@@H](CC1CCCCC1)C(=O)O; Hyp = O=C(O)[C@@H]1C[C@@H](O)CN1; NMeD = CN[C@@H](CC(=O)O)C(=O)O; NMeL = CN[C@@H](CC(C)C)C(=O)O; NMeV = CN[C@H](C(=O)O)C(C)C; NMeA = CN[C@@H](C)C(=O)O; NMeAib = CNC(C)(C)C(=O)O; Nle = CCCC[C@H](N)C(=O)O; Ac5c = NC1(C(=O)O)CCCC1; Sar = CNCC(=O)O
Quantity Measured: pIC50

- CCCC[C@@H]1NC(=O)[C@H](CCc2ccc(C(F)(F)F)c(F)c2)NC(=O)CN(C)C(=O)[C@H](Cc2ccc(Cl)cc2)N(C)C(=O)CN(C)C(=O)CN(C)C(=O)[C@H]([C@@H](C)CC)NC(=O)[C@H](CC(C)C)N(C)C(=O)C[C@@H](C)N(C)C(=O)[C@H](CC(C)C)NC(=O)C(C)(C)N(C)C1=O [Compound 165] (cyclo(I[Sar][Sar][NMePhe(4-Cl)][Sar][hPhe(3-F,4-CF3)][Nle][NMeAib]L[NMedβ3hAla][NMeL])): 7.39
- CCO[C@@H]1C[C@H]2C(=O)NC3(CCCC3)C(=O)N(C)[C@@H](CC(C)C)C(=O)N(C)[C@H](C)CC(=O)N(C)[C@@H](CC(C)C)C(=O)N[C@@H]([C@@H](C)CC)C(=O)N(C)CC(=O)N(C)CC(=O)N(C)[C@@H](CC3CCCCC3)C(=O)N(C)CC(=O)N[C@@H](CCc3ccc(C(F)(F)F)c(Cl)c3)C(=O)N2C1 [Compound 1851] (cyclo([Ac5c][NMeL][NMedβ3hAla][NMeL]I[Sar][Sar][NMeCha][Sar][hPhe(3-Cl-4-CF3)][Hyp](Et))): 8.60
- CC[C@H](C)[C@@H]1NC(=O)[C@H](C)N(C)C(=O)C[C@@H](C(=O)N(C)C)N(C)C(=O)[C@H](C(C)C)N(C)C(=O)C2(CCCC2)NC(=O)[C@H](Cc2ccccc2Cl)N(C)C(=O)[C@H](CCc2ccc(C(F)(F)F)c(Cl)c2)NC(=O)CN(C)C(=O)[C@H](CC2CCCCC2)N(C)C(=O)CN(C)C(=O)CN(C)C1=O [Compound 317] ([NMeA]I[Sar][Sar][NMeCha][Sar][hPhe(3-Cl-4-CF3)][NMePhe(2-Cl)][Ac5c][NMeV][NMeD]-NMe2; lactam N-11): 7.52
